test system: Escherichia coli TOP10; assay: shrunken log2 fold change of peptide-encoding DNA abundance (4.5 h post-induction vs induction); higher = less antimicrobial activity (less host growth inhibition); conditions: time post-induction: 4.5 h; library: site-saturation at positions 5, 18, 19, 20
Assign shrunken log2 fold change to each entry below.
Give bare numbers.

Observe how each entry below is paired with its result.
RRIRWRPPRLPRPRPRPNTAPRP 0.055
RRIRPRPPRLPRPRPRPRMPPRP 0.249
RRIRFRPPRLPRPRPRPQKAPRP 0.0467
RRIRIRPPRLPRPRPRPNERPRP -0.319
RRIRHRPPRLPRPRPRPVQTPRP -0.011

List shrunken log2 fold change for every entry below, keeping the order given.
1. RRIRMRPPRLPRPRPRPQPNPRP
2. RRIRNRPPRLPRPRPRPVNWPRP
3. RRIRTRPPRLPRPRPRPVTTPRP
4. RRIRTRPPRLPRPRPRPGYEPRP
5. RRIRERPPRLPRPRPRPWRSPRP
6. RRIRCRPPRLPRPRPRPYIHPRP

A:
1: 0.546; 2: -0.0184; 3: -0.116; 4: -0.0417; 5: 0.196; 6: -1.11

List shrunken log2 fold change for every entry below, keeping the order given.
1. RRIRRRPPRLPRPRPRPDKVPRP
2. RRIRARPPRLPRPRPRPLASPRP
3. RRIRDRPPRLPRPRPRPIWIPRP
4. RRIRERPPRLPRPRPRPGRDPRP

A:
-0.053
0.841
0.0877
0.419

----------
system: Escherichia coli TOP10; test: shrunken log2 fold change of peptide-encoding DNA abundance (4.5 h post-induction vs induction); higher = less antimicrobial activity (less host growth inhibition); conditions: time post-induction: 4.5 h; library: site-saturation at positions 5, 18, 19, 20
RECORDED METRIC: shrunken log2 fold change

Observe how each entry below is paired with its result.
RRIRNRPPRLPRPRPRPCCAPRP -0.0874
RRIRPRPPRLPRPRPRPTEQPRP 0.307
RRIRNRPPRLPRPRPRPARRPRP 0.294
RRIRSRPPRLPRPRPRPCMLPRP -0.472
RRIRFRPPRLPRPRPRPHQMPRP -0.037

List shrunken log2 fold change for every entry below, keeping the order given.
1. RRIRMRPPRLPRPRPRPNLYPRP
2. RRIRPRPPRLPRPRPRPARYPRP
3. RRIRYRPPRLPRPRPRPHEVPRP
4. RRIRMRPPRLPRPRPRPWTAPRP
5. RRIRYRPPRLPRPRPRPYMRPRP
6. RRIRYRPPRLPRPRPRPPWPPRP
7. RRIRHRPPRLPRPRPRPSRDPRP

A:
[-0.00588, 0.19, -0.0317, -0.0195, -1.01, 0.405, 0.234]

----------
test system: Escherichia coli TOP10; assay: shrunken log2 fold change of peptide-encoding DNA abundance (4.5 h post-induction vs induction); higher = less antimicrobial activity (less host growth inhibition); details: time post-induction: 4.5 h; library: site-saturation at positions 5, 18, 19, 20
RECORDED METRIC: shrunken log2 fold change
Give bare numbers.

Observe how each entry below is paired with its result.
RRIRGRPPRLPRPRPRPRKQPRP 0.875
RRIRFRPPRLPRPRPRPVCSPRP -0.279
RRIRVRPPRLPRPRPRPPPHPRP 0.676
RRIRWRPPRLPRPRPRPQYPPRP -0.139
RRIRWRPPRLPRPRPRPEMPPRP 0.364
RRIRARPPRLPRPRPRPHENPRP 0.127
RRIRIRPPRLPRPRPRPHITPRP -0.66
RRIRPRPPRLPRPRPRPAKPPRP 0.196

List shrunken log2 fold change for every entry below, keeping the order given.
1. RRIRHRPPRLPRPRPRPTPKPRP
2. RRIRNRPPRLPRPRPRPHLYPRP
3. RRIRTRPPRLPRPRPRPEMRPRP
4. RRIRMRPPRLPRPRPRPYSYPRP
5. RRIRDRPPRLPRPRPRPHHVPRP
6. RRIRCRPPRLPRPRPRPKTHPRP

A:
1. -0.0377
2. -0.22
3. 0.825
4. 0.0871
5. -0.145
6. -0.115

Q: Query the reported shrunken log2 fold change for Escherichia coli TOP10; item: "RRIRHRPPRLPRPRPRPGESPRP"
A: -0.0414

----------
system: Escherichia coli TOP10; experiment: shrunken log2 fold change of peptide-encoding DNA abundance (4.5 h post-induction vs induction); higher = less antimicrobial activity (less host growth inhibition); details: time post-induction: 4.5 h; library: site-saturation at positions 5, 18, 19, 20
RECORDED METRIC: shrunken log2 fold change
Numbers only.

List shrunken log2 fold change for every entry below, keeping the order given.
1. RRIRFRPPRLPRPRPRPCCMPRP
2. RRIRQRPPRLPRPRPRPHLLPRP
3. RRIRIRPPRLPRPRPRPRAGPRP

A:
-0.579
0.006
1.6

List shrunken log2 fold change for every entry below, keeping the order given.
1. RRIRSRPPRLPRPRPRPVLLPRP
2. RRIRVRPPRLPRPRPRPIGRPRP

A:
1. -0.315
2. -0.0725

List shrunken log2 fold change for every entry below, keeping the order given.
1. RRIRERPPRLPRPRPRPAVPPRP
2. RRIRGRPPRLPRPRPRPDESPRP
3. RRIRFRPPRLPRPRPRPLAFPRP

A:
1: 0.0842; 2: 0.0316; 3: -0.134

----------
Assign shrunken log2 fold change to each entry below.
test system: Escherichia coli TOP10; experiment: shrunken log2 fold change of peptide-encoding DNA abundance (4.5 h post-induction vs induction); higher = less antimicrobial activity (less host growth inhibition); conditions: time post-induction: 4.5 h; library: site-saturation at positions 5, 18, 19, 20
Give bare numbers.

Observe how each entry below is paired with its result.
RRIRDRPPRLPRPRPRPACVPRP 0.337
RRIRFRPPRLPRPRPRPCFWPRP 0.0499
RRIRRRPPRLPRPRPRPHGNPRP 0.166
RRIRSRPPRLPRPRPRPNPHPRP -0.139
RRIRLRPPRLPRPRPRPFWEPRP 0.117
RRIRYRPPRLPRPRPRPWVKPRP 0.0136

List shrunken log2 fold change for every entry below, keeping the order given.
1. RRIRERPPRLPRPRPRPYKSPRP
2. RRIRNRPPRLPRPRPRPEPEPRP

A:
1. -0.0824
2. 0.0273

----------
tested on: Escherichia coli TOP10; assay: shrunken log2 fold change of peptide-encoding DNA abundance (4.5 h post-induction vs induction); higher = less antimicrobial activity (less host growth inhibition); conditions: time post-induction: 4.5 h; library: site-saturation at positions 5, 18, 19, 20
RECORDED METRIC: shrunken log2 fold change

RRIRSRPPRLPRPRPRPVWPPRP 0.434
RRIRGRPPRLPRPRPRPYPYPRP -0.095
RRIRMRPPRLPRPRPRPLHRPRP 0.304

List shrunken log2 fold change for every entry below, keeping the order given.
1. RRIRQRPPRLPRPRPRPAPNPRP
2. RRIRIRPPRLPRPRPRPTEVPRP
3. RRIRARPPRLPRPRPRPRYHPRP
4. RRIRYRPPRLPRPRPRPWCYPRP
5. RRIRSRPPRLPRPRPRPIAGPRP
6. RRIRVRPPRLPRPRPRPCDLPRP

A:
0.561
0.232
-0.135
-1.21
-0.00669
-0.238

List shrunken log2 fold change for every entry below, keeping the order given.
1. RRIRCRPPRLPRPRPRPMINPRP
2. RRIRPRPPRLPRPRPRPNAEPRP
3. RRIRLRPPRLPRPRPRPICMPRP
4. RRIRVRPPRLPRPRPRPCQDPRP
5. RRIRARPPRLPRPRPRPKHRPRP
6. RRIRSRPPRLPRPRPRPYPMPRP
7. RRIRSRPPRLPRPRPRPRIAPRP
8. RRIRDRPPRLPRPRPRPTIWPRP

A:
[-0.53, 0.154, -0.456, -0.336, 0.556, -0.035, 0.174, -0.0201]

----------
Assign shrunken log2 fold change to each entry below.
tested on: Escherichia coli TOP10; experiment: shrunken log2 fold change of peptide-encoding DNA abundance (4.5 h post-induction vs induction); higher = less antimicrobial activity (less host growth inhibition); conditions: time post-induction: 4.5 h; library: site-saturation at positions 5, 18, 19, 20;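 also: peptides expressed intracellularly from a pBAD plasmid library in pooled LB shake-flask culture, induced with 0.3% L-arabinose, DNA abundance read by NGS, three biological replicates, DESeq2 with apeglm shrinkage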
Give bare numbers.

List shrunken log2 fold change for every entry below, keeping the order given.
1. RRIRSRPPRLPRPRPRPAGAPRP
2. RRIRLRPPRLPRPRPRPVYDPRP
3. RRIRKRPPRLPRPRPRPHHSPRP
4. RRIRERPPRLPRPRPRPCICPRP
5. RRIRNRPPRLPRPRPRPFVEPRP
6. RRIRPRPPRLPRPRPRPTFKPRP
7. RRIRMRPPRLPRPRPRPFFEPRP

A:
0.36
-0.0147
-0.298
-0.0733
-0.12
0.0985
0.597

List shrunken log2 fold change for every entry below, keeping the order given.
1. RRIRLRPPRLPRPRPRPFAFPRP
2. RRIRMRPPRLPRPRPRPKYLPRP
3. RRIRARPPRLPRPRPRPHNDPRP
4. RRIRCRPPRLPRPRPRPLPAPRP
5. RRIRVRPPRLPRPRPRPEWYPRP
6. RRIRERPPRLPRPRPRPRQIPRP

A:
[-0.442, -0.278, -0.34, 0.574, -0.419, 0.0409]

List shrunken log2 fold change for every entry below, keeping the order given.
1. RRIRVRPPRLPRPRPRPVCHPRP
2. RRIRKRPPRLPRPRPRPIPTPRP
3. RRIRNRPPRLPRPRPRPGTSPRP

A:
[-0.29, 0.397, -0.0337]

List shrunken log2 fold change for every entry below, keeping the order given.
1. RRIRFRPPRLPRPRPRPCVMPRP
2. RRIRSRPPRLPRPRPRPHMVPRP
3. RRIRPRPPRLPRPRPRPANIPRP

A:
1: -0.143; 2: -0.112; 3: -0.617
